meta.source: paper PMC12025681

Subject of test: TRPM8 (hTRPM8) (Homo sapiens)
Sequence (Q7Z2W7 whole entry): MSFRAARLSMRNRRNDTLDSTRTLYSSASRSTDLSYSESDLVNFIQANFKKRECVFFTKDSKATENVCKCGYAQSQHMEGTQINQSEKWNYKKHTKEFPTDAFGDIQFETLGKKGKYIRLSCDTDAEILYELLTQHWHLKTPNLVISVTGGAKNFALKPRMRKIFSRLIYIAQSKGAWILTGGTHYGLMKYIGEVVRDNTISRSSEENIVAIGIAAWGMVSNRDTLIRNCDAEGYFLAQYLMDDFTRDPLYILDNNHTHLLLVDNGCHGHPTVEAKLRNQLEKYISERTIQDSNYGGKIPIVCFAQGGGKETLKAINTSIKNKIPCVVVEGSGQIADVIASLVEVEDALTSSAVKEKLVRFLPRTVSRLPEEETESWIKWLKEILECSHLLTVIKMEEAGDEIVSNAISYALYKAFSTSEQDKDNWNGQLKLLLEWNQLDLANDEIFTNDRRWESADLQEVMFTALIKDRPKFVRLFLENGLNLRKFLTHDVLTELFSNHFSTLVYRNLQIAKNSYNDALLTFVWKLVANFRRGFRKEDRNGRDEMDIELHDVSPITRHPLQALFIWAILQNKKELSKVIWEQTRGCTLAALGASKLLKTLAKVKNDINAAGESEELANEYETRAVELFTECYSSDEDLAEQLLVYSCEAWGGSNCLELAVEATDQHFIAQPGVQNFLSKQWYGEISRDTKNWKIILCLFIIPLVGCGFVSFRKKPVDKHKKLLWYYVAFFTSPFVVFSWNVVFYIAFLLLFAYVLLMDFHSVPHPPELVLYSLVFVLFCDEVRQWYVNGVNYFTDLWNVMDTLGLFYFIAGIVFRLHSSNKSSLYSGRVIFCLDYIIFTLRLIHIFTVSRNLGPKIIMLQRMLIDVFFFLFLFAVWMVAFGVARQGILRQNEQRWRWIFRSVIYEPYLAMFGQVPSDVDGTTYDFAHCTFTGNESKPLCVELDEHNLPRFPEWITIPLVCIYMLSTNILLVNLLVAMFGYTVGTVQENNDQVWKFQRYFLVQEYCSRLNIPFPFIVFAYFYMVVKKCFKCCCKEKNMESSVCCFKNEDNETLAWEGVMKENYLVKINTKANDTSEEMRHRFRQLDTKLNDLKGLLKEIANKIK
Procedure summary: whole-cell patch clamp in transfected HEK293T cells (menthol-evoked currents)
Measure name: IC50 (µM)
Your answer should be a plain number; it is taken to be in µM.

IN: Any idea what IC50 came out for CNCCC(Oc1ccc(C(F)(F)F)cc1)c1ccccc1 (stereo not shown) on TRPM8 (hTRPM8) (Homo sapiens)?
OUT: 20

---

Subject of test: human TRPV3 (hTRPV3) (Homo sapiens)
Sequence (Q8NET8 whole entry): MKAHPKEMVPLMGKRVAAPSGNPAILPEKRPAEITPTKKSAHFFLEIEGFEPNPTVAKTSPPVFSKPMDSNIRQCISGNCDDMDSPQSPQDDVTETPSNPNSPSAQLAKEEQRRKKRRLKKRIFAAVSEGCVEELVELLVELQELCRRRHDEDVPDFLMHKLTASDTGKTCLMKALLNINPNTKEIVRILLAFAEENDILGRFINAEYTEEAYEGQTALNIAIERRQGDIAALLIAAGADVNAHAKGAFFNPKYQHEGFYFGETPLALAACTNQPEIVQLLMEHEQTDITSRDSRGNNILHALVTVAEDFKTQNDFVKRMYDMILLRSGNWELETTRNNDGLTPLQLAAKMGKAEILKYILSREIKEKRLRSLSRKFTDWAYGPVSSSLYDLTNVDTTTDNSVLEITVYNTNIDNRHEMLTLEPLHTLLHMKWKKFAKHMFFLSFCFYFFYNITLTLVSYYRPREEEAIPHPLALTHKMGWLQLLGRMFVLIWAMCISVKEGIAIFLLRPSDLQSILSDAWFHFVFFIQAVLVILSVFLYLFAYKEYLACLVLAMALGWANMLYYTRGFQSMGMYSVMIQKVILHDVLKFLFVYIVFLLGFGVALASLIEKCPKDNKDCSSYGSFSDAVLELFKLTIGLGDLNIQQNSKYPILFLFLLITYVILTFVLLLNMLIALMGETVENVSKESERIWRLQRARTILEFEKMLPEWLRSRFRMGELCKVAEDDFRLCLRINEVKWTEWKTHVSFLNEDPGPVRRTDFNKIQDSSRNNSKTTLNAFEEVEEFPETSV
Procedure summary: whole-cell patch clamp and inside-out single-channel recording in transfected HEK293T cells (2-APB-evoked currents)
Measure name: pIC50
Notebook: values listed as pIC50 are -log10 of the concentration (mol/L).

IN: Item CNCCC(Oc1ccc(C(F)(F)F)cc1)c1ccccc1 (stereo not shown) [FLX, Fluoxetine] has what recorded pIC50?
OUT: 4.99
